Target: Activin B (UniProt P09529)
Sequence (P09529 293-407 limits assumed): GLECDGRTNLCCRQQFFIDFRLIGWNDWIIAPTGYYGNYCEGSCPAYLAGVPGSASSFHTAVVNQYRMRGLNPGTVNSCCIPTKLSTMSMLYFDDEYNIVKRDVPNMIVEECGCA
Test: SPR (Biacore 2000), Fc fusion captured on anti-human Fc chip, ligand injected, 1:1 Langmuir fit
pKd: −log10 of the molar value.
Recorded endpoint: pKd

substance="BMPRII-Fc (BMPRII (1-120) fused to hIgG1-Fc) (from UniProt Q13873 27-120) (Fc fusion)" reading=9.10
